- test-summary: refractive index (Na D-line) (dimensionless)
- particulars: 318.15 K; 101.33 kPa; Liquid; Standard Abbe refractometry
# refractive index per entry
Just the number, please, no unit after it.

These solved cases illustrate the format of a correct answer.
CCCCCCC [heptane] ... 1.3748
CCCCCCCC [octane] ... 1.3855
CCCCCCCCC [nonane] ... 1.3938
CCCCCCCCCC [decane] ... 1.4008
CCCCCC [hexane] ... 1.3615

Pending compound:
Fill in the blank: the reported refractive index of CCCOC(C)=O [propyl ethanoate] is ____.
1.372

====

# mass density per entry
- particulars: 298.15 K; 101 kPa; Liquid; Vibrating tube method
Give your result in kg/m3 as a bare value.

These solved cases illustrate the format of a correct answer.
CCCCCCCCC ... 713.9
CCCCCCCC ... 698.6
CCCCCCCCCC ... 726.2
CCCCC ... 621.4
CCCCCC ... 654.8
CCCCCCC ... 679.5

Pending compound:
Fill in the blank: the reported mass density of CCCOC(C)=O [propyl ethanoate] is ____.
882.5
